Method Summary: Pharmacokinetic assessment in neutropenic A. baumannii-infected mice
Format: in vivo, mouse
Assay Conditions: female, BALB/c, mouse, thigh, iv, 75 mg/kg, thigh, 75 mg/kg, single dose, read-out: Cmax
From the text: Pharmacokinetic assessment The protocol to assess fabimycin’s pharmacokinetic properties in A. baumanii-infected mice (strain: AR-0088) was approved by the IACUC at Pharmacology Discovery Services, Taiwan, Ltd. (protocol mumber: PK001-09212018). In this study, neutropenic female BALB/c mice 7-8 weeks in age from BioLASCO Taiwan (AAALAC-certified Charles River Licensee) weighing 18 ± 2 grams were used.10 All animals were specific pathogen free. […]

{"Smiles Text": "Cc1c(CN(C)C(=O)/C=C/c2cnc3c(c2)CC[C@H](N)C(=O)N3)oc2ccccc12", "Cmax [ng/g]": 33000}

Origin of the recorded values: paper PMC9413440
